# System: P. aeruginosa ATCC 27853
# Format: cell-based, Pseudomonas aeruginosa
# CONDITION PARAMETERS: median of triplicate
# From the text: All 81 compounds prepared in Examples 2 and 3 underwent screening against a panel of Gram-negative bacterium to assess their ability to inhibit bacterial growth. […] The median value is presented.
Positions of bridges follow the written chain, without caps; N, C: chain ends. Non-standard residues stand in square brackets, D forms with d. Residues, ends and D or L forms follow the SMILES beside them. *: point of attachment. Ethyl(2-OPiv) = CC(C)(C)C(=O)OCC*; Ethyl(2-OBz) = O=C(OCC*)c1ccccc1; Dab = NCC[C@H](N)C(=O)O; Butyryl = CCCC(=O)*
ENDPOINT NAME: MIC P. aeruginosa ATCC 27853

COMPOUND	TARGET UNDER TEST	ENDPOINT NAME	RESULT
C[C@@H](O)[C@@H]1NC(=O)[C@H](CCN)NC(=O)[C@H](CCN)NC(=O)[C@H](CSCCOC(=O)C(C)(C)C)NC(=O)[C@@H](Cc2ccccc2)NC(=O)[C@H](CCN)NC(=O)[C@@H](NC(=O)[C@H](CCN)NC(=O)[C@@H](NC(=O)[C@H](CCN)NC(=O)[C@@H](N)CSCCOC(=O)c2ccccc2)[C@@H](C)O)CCNC1=O [Compound 48] (H-C(Ethyl(2-OBz))[Dab]T[Dab][Dab][Dab][dF]C(Ethyl(2-OPiv))[Dab][Dab]T; lactam 5-C)	P. aeruginosa ATCC 27853	MIC P. aeruginosa ATCC 27853	2 µg/mL
CCCC(=O)N[C@@H](CSCCOC(=O)c1ccccc1)C(=O)N[C@@H](CCN)C(=O)N[C@H](C(=O)N[C@@H](CCN)C(=O)N[C@H]1CCNC(=O)[C@H]([C@@H](C)O)NC(=O)[C@H](CCN)NC(=O)[C@H](CCN)NC(=O)[C@H](CSCCOC(=O)c2ccccc2)NC(=O)[C@@H](Cc2ccccc2)NC(=O)[C@H](CCN)NC1=O)[C@@H](C)O [Compound 50] (Butyryl-C(Ethyl(2-OBz))[Dab]T[Dab][Dab][Dab][dF]C(Ethyl(2-OBz))[Dab][Dab]T; lactam 5-C)	P. aeruginosa ATCC 27853	MIC P. aeruginosa ATCC 27853	1 µg/mL
